Hello, the source for this data is patent US9006450B2, in case you need it.

# Assay Target: human ACC2 (Homo sapiens)
# Construct: made in house; host or cells: insect cells (baculoviral expression system)
# Test Summary: ACC2 assay, spectrophotometric 384 well assay (NADH-linked, coupled lactate dehydrogenase/pyruvate kinase)
# Format: biochemical
# Test Parameters: ACC2 assay, hACC2 construct lacking 128 N-terminal amino acids, 25° C., 340 nm; read-out: IC50
Value Type: IC50 (nM)

Solved cases below.
>>> endpoint_result("CC(=O)N[C@@H](C)c1ccc(C2CCN(c3ncc(-c4c(C)noc4C)cn3)CC2)cc1")
2700
>>> endpoint_result("CC(=O)N[C@@H](C)c1ccc(C2CCN(c3cccc(C(=O)O)c3)CC2)cc1")
9300

[I] CC(=O)N[C@@H](C)c1ccc(C2CCN(c3ccnc(NC4CCCC4)n3)CC2)cc1
[II] CC#CCOc1cc(N2CCC(c3ccc([C@H](C)NC(C)=O)cc3)CC2)ncn1
[III] C[C@H](NC(=O)N(C)C)c1ccc(C2CCN(c3ccc(OC4CC4)cc3)CC2)cc1
[in] List from greatest to least IC50. Response format: the labels, sorted as the prompt asks.
[out] I, II, III

---

# Assay Target: human ACC2 (Homo sapiens, UniProt O00763)
# Construct: made in house; host or cells: insect cells (baculoviral expression system)
# Sequence (O00763 129-2458 limits assumed): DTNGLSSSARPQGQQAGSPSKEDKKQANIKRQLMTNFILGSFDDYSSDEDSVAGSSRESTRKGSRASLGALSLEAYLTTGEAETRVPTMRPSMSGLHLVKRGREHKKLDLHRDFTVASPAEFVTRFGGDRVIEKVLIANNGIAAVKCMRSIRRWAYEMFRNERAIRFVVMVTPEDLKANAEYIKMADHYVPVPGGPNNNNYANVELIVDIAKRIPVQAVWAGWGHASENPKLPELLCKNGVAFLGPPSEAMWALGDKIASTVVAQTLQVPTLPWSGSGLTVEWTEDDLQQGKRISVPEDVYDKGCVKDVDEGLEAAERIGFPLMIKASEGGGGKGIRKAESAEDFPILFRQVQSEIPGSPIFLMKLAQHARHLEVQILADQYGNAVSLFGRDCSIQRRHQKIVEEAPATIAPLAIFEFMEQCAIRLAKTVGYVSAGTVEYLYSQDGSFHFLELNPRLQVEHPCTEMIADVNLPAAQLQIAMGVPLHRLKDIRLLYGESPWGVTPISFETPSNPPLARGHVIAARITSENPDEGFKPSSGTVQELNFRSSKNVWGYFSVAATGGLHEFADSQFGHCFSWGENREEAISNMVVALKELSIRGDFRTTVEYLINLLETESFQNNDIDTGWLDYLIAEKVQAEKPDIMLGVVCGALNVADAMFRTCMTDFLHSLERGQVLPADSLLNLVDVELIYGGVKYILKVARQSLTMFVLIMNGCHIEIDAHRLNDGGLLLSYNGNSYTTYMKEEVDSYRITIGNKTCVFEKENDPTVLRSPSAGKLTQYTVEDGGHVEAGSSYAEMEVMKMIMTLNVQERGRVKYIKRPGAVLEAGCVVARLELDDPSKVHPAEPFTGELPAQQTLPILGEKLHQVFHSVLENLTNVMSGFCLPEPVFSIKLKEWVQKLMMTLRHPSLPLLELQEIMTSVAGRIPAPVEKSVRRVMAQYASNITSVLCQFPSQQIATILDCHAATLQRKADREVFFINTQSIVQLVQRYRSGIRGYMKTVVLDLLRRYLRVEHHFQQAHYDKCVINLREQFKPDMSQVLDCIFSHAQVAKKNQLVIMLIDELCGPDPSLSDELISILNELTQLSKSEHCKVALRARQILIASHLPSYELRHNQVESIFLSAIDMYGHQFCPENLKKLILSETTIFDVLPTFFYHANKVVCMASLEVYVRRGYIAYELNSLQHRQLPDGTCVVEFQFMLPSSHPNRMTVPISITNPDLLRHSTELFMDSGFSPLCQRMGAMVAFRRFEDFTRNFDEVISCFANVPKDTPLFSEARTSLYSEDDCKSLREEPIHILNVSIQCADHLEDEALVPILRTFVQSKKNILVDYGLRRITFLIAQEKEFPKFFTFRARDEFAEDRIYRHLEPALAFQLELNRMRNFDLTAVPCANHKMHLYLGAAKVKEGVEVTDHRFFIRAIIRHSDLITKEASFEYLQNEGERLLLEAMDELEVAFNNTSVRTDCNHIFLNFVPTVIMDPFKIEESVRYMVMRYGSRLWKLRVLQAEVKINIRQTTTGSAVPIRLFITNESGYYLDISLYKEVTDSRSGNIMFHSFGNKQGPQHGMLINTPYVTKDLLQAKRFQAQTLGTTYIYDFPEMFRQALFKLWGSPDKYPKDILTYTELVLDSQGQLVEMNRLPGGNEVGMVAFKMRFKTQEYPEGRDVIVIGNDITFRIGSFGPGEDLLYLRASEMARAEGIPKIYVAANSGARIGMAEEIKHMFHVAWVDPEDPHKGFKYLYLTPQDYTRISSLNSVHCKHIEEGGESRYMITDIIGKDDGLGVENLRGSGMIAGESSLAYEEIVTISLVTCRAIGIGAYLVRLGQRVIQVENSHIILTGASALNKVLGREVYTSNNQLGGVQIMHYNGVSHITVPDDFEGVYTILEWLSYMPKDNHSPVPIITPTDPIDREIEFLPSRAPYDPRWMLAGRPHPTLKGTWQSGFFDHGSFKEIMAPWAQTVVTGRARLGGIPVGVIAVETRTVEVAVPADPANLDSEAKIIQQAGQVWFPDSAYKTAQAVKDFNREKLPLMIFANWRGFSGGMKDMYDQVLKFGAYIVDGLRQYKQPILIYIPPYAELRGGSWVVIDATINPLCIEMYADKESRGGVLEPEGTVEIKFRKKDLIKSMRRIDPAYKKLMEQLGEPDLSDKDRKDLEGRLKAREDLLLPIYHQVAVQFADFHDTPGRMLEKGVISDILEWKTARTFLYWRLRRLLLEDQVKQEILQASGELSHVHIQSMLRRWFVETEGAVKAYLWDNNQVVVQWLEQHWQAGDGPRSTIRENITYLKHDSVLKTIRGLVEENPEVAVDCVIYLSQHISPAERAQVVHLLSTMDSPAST
# Test Summary: ACC2 assay, spectrophotometric 384 well assay (NADH-linked, coupled lactate dehydrogenase/pyruvate kinase)
# Format: biochemical
# Test Parameters: ACC2 assay, hACC2 construct lacking 128 N-terminal amino acids, 25° C., 340 nm; read-out: IC50
Value Type: IC50 (µM)

See these solved cases before continuing.
>>> endpoint_result("CC(=O)N[C@@H](C)c1ccc(C2CCN(c3ncc(C(=O)N(C)c4ccccc4)cn3)CC2)cc1 [Example 18.89]")
1.2
>>> endpoint_result("COc1cc(OC(C)C)ccc1N1CCC(c2ccc([C@H](C)NC(C)=O)cc2)CC1 [Example 1.35]")
0.32

[1] CC(=O)N[C@@H](C)c1ccc(C2CCN(c3ccc(C(F)(F)F)cn3)CC2)cc1 [Example 4.17]
[2] COC(=O)N[C@@H](C)c1ccc(C2CCN(c3ccc(OC4CCCC4)cc3)CC2)cc1 [Example 1.133]
[3] CC(=O)N[C@@H](C)c1ccc(C2CCN(c3ccc4[nH]c(C)cc4c3)CC2)cc1 [Example 1.76]
[in] Parameters: sort_field (IC50), sort_dir (desc). In your reply, arrange the labels in the requested order.
[out] 3, 1, 2
(3: 1.9 µM, 1: 0.44 µM, 2: 0.13 µM)

---

# Assay Target: human ACC2 (Homo sapiens)
# Construct: made in house; host or cells: insect cells (baculoviral expression system)
# Test Summary: ACC2 assay, spectrophotometric 384 well assay (NADH-linked, coupled lactate dehydrogenase/pyruvate kinase)
# Format: biochemical
# Test Parameters: ACC2 assay, hACC2 construct lacking 128 N-terminal amino acids, 25° C., 340 nm; read-out: IC50
pIC50: −log10 of the molar value.
Value Type: pIC50

Examples with their reported pIC50 follow.
>>> endpoint_result("CC(=O)N[C@@H](C)c1ccc(C2CCN(c3ncc(C(=O)NCCN4CCCC4)cn3)CC2)cc1 [Example 18.51]")
4.86
>>> endpoint_result("CC(=O)N[C@@H](C)c1ccc(C2CCN(c3ccnc(OCCC4CC4)n3)CC2)cc1 [Example 11.4]")
6.35

[A] CC(=O)N[C@@H](C)c1ccc(C2CCN(c3ncc(-c4ccc5c(c4)OCCO5)cn3)CC2)cc1 [Example 10.23]
[B] C[C@H](NC(=O)C1CC1)c1ccc(C2CCN(c3ncc(C#N)c(N(C)CC4CC4)n3)CC2)cc1 [Example 11.127]
[in] Could you determine which record has the numerically smaller pIC50? Candidates: A and B Indicate which entry you chose by stating its label.
[out] B
